Tested on: HCT116 WT cells
test name: HCT116 proliferation assay, WT cells (CellTiter-Glo, 6 days)
Assay type: cell-based
condition summary: Homo sapiens, HCT-116, 144 h, read-out: Prolif_HCT116-WT IC50

given smiles: Cc1cc2cc(C(=O)N(Cc3cc[nH]c3)Cc3ccc(C(F)(F)F)cn3)ccc2nc1N
IC50: > 1000 nM
--
given smiles: Cc1cc2cc(C(=O)N(Cc3ccc(N4CCCCC4)cc3)Cc3ccnc4[nH]ccc34)ccc2nc1N
IC50: > 1000 nM
--
given smiles: Cc1cc2cc(C(=O)N(Cc3ccc(N4CCCCC4)cc3)CC3(C#N)CC3)ccc2nc1N
IC50: > 1000 nM
--
given smiles: Cc1cc2cc(C(=O)N(Cc3ccc(CO)c(F)c3)Cc3ccc(C(F)(F)F)cn3)ccc2nc1N
IC50: > 10000 nM

###

# IC50 per entry
System: HCT116 WT cells
test name: HCT116 proliferation assay, WT cells (CellTiter-Glo, 6 days)
Format: cell-based
condition summary: Homo sapiens, HCT-116, 144 h, read-out: Prolif_HCT116-WT IC50
assay endpoint: IC50

compound: Cc1cc2cc(C(=O)N(Cc3ccc(C(F)F)cn3)CC(C)C)ccc2nc1N
value observed: > 10 µM

compound: Cc1csc(CN(Cc2ccc(C(F)(F)F)cn2)C(=O)c2ccc3nc(N)c(C)cc3c2)n1
value observed: > 1 µM

compound: Cc1cc2cc(C(=O)N(Cc3ccc(C(F)(F)F)cn3)C[C@@H](C)C(F)(F)F)ccc2nc1N (single isomer, unassigned)
value observed: > 10 µM

compound: Cc1cc2cc(C(=O)N(Cc3ccc(C(F)(F)F)cn3)Cc3ncc(Cl)cn3)ccc2nc1N
value observed: > 10 µM

compound: Cc1cc2cc(C(=O)N(Cc3ccc(C(F)(F)F)cn3)CC(C)C(F)(F)F)ccc2nc1N (centres unmarked)
value observed: > 1 µM

compound: Cc1cc2cc(C(=O)N(Cc3ccc(C(F)(F)F)cn3)C3CCCC3C#N)ccc2nc1N (centres unmarked)
value observed: > 1 µM

compound: Cc1cc2cc(C(=O)N(Cc3ccncc3)Cc3ccc(C(F)(F)F)cn3)ccc2nc1N
value observed: > 10 µM

compound: Cc1cc2cc(C(=O)N(Cc3ccc(C(F)(F)F)cn3)Cc3cnccn3)ccc2nc1N
value observed: > 10 µM

Values were extracted from patent US20230159510A1.
